Assay Name: Cell viability (CCK-8), cytotoxicity
Reported Conditions: human, THP1 cells, Cell viability (Fig. S2e), THP1 (48h), XQ2 5 μM
Square brackets hold non-standard residues; d marks the D form. Peptide text beside a SMILES is read from it.
Measured Property: viability at 48 h, 5 µM
Numeric answer plus unit only.

-- ask // lookup viability at 48 h, 5 µM for CC(C)C[C@@H]1NC(=O)[C@H](CCCNC(=N)N)NC(=O)[C@H](C(C)C)NC(=O)[C@@H]2CCCN2C(=O)[C@@H](Cc2ccccc2)NC(=O)[C@H](CC(C)C)NC(=O)[C@H](CCCNC(=N)N)NC(=O)[C@H](C(C)C)NC(=O)[C@H](C)NC(=O)[C@@H](Cc2ccccc2)NC1=O [XQ2, Cyclo (LfAVRLfPVR)] (cyclo(L[dF]AVRL[dF]PVR))
-- reply 90.4%

---

Assay Name: in vitro
Reported Conditions: human, THP1 cells, Cell viability (Fig. S7a)
Procedure: Cell viability was measured by cell counting kit-8 (TargetMol) according to the manufacturer’s instructions. Supplementary Fig. 2. […] (e-g) THP1 cells (e), L929 cells (f) and RAW264.7 cells (g) were exposed to the indicated doses of XQ2 for 48h, the cell viability was measured by CCK8 assay. Data are representative of three independent experiments in (a-g). […] Supplementary Fig. 7. […] The cell viability was measured by CCK8 assay. […]
Square brackets hold non-standard residues; d marks the D form. Peptide text beside a SMILES is read from it.
Measured Property: viability at 48 h, 1.5625 µM (%)
Express it in %; write the number only.

-- ask // lookup viability at 48 h, 1.5625 µM for CC(C)C[C@@H]1NC(=O)[C@H](CCCNC(=N)N)NC(=O)[C@H](C(C)C)NC(=O)[C@@H]2CCCN2C(=O)[C@@H](Cc2ccccc2)NC(=O)[C@H](CC(C)C)NC(=O)[C@H](CCCNC(=N)N)NC(=O)[C@H]([C@@H](C)O)NC(=O)[C@H](C)NC(=O)[C@@H](Cc2ccccc2)NC1=O [XQ2B] (cyclo([dF]ATRL[dF]PVRL))
-- reply 108

---

Assay Name: Cell viability (CCK-8), cytotoxicity
Reported Conditions: human, THP1 cells, Cell viability (Fig. S7a), XQ2 2500 nM
Square brackets hold non-standard residues; d marks the D form. Peptide text beside a SMILES is read from it.
Measured Property: viability at 48 h, 2.5 µM (%)
Express it in %; write the number only.

-- ask // lookup viability at 48 h, 2.5 µM for CC(C)C[C@@H]1NC(=O)[C@H](CCCNC(=N)N)NC(=O)[C@H](C(C)C)NC(=O)[C@@H]2CCCN2C(=O)[C@@H](Cc2ccccc2)NC(=O)[C@H](CC(C)C)NC(=O)[C@H](CCCNC(=N)N)NC(=O)[C@H](C(C)C)NC(=O)[C@H](C)NC(=O)[C@@H](Cc2ccccc2)NC1=O [XQ2, Cyclo (LfAVRLfPVR)] (cyclo(L[dF]AVRL[dF]PVR))
-- reply 92.5

---

Assay Name: in vitro
Reported Conditions: human, THP1 cells, Cell viability (Fig. S7a)
Square brackets hold non-standard residues; d marks the D form. Peptide text beside a SMILES is read from it.
Measured Property: viability at 48 h, 0.390625 µM (%)
Express it in %; write the number only.

-- ask // lookup viability at 48 h, 0.390625 µM for CC(C)C[C@@H]1NC(=O)[C@H](CCCNC(=N)N)NC(=O)[C@H](C(C)C)NC(=O)[C@@H]2CCCN2C(=O)[C@@H](Cc2ccccc2)NC(=O)[C@H](CC(C)C)NC(=O)[C@H](CCCNC(=N)N)NC(=O)[C@H]([C@@H](C)O)NC(=O)[C@H](C)NC(=O)[C@@H](Cc2ccccc2)NC1=O [XQ2B] (cyclo([dF]ATRL[dF]PVRL))
-- reply 98

---

Assay Name: in vitro
Reported Conditions: mouse, L929 cells, Cell viability (Fig. S2e), L929 (48h), XQ2 0.94 μM
Method: Cell viability was measured by cell counting kit-8 (TargetMol) according to the manufacturer’s instructions. […] (e-g) THP1 cells (e), L929 cells (f) and RAW264.7 cells (g) were exposed to the indicated doses of XQ2 for 48h, the cell viability was measured by CCK8 assay. Data are representative of three independent experiments in (a-g). (Data are presented as mean ± SD, n = 3 independent samples in (a-g), **p < 0.01, ***p < 0.001, ****p < 0.0001 using one-way ANOVA with Dunnett’s post hoc test). […]
Square brackets hold non-standard residues; d marks the D form. Peptide text beside a SMILES is read from it.
Measured Property: viability at 48 h, 0.94 µM (%)
Express it in %; write the number only.

-- ask // lookup viability at 48 h, 0.94 µM for CC(C)C[C@@H]1NC(=O)[C@H](CCCNC(=N)N)NC(=O)[C@H](C(C)C)NC(=O)[C@@H]2CCCN2C(=O)[C@@H](Cc2ccccc2)NC(=O)[C@H](CC(C)C)NC(=O)[C@H](CCCNC(=N)N)NC(=O)[C@H](C(C)C)NC(=O)[C@H](C)NC(=O)[C@@H](Cc2ccccc2)NC1=O [XQ2, Cyclo (LfAVRLfPVR)] (cyclo(L[dF]AVRL[dF]PVR))
-- reply 83.6

---

Target Desc: recombinant human cGAS enzyme (hcGAS-ΔN, residues 147–522) (Homo sapiens, UniProt Q8N884)
Construct: N-terminally truncated human cGAS (hcGAS-ΔN, residues 147–522); 6xHis-SUMO (N, cleaved yes); made in house; host or cells: Escherichia coli BL21 (DE3)
Sequence (Q8N884 147-522, stated change not applied): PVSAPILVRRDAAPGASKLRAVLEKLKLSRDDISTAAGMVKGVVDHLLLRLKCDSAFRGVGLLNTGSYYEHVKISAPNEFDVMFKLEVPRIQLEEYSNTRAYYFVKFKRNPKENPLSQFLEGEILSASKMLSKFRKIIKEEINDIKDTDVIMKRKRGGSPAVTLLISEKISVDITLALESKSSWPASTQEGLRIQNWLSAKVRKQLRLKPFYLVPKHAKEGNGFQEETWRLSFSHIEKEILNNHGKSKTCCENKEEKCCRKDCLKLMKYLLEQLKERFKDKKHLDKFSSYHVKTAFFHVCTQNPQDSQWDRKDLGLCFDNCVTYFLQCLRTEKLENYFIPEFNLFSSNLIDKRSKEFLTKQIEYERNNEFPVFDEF
Assay Name: RNA-based fluorescent biosensor assay of cGAS activity (2',3'-cGAMP formation), in vitro screening
Type: biochemical
Reported Conditions: 20 μM; replicate values; read-out: Remaining activity (%), Fig. 1a source data
Description: To screen direct cGAS inhibitors targeting protein-DNA interface from our developed focused library of macrocyclic peptides, we applied an RNA-based fluorescent biosensor for 2’,3’-cGAMP to detect cGAS activity in vitro (Supplementary Fig. 1a)[49]. […] To evaluate the inhibitory effect of the hits against cGAS in cells, we employed real-time quantitative PCR (qPCR) to examine mRNA levels of IFNΒ1 in THP1 cells. […]
Square brackets hold non-standard residues; d marks the D form. Peptide text beside a SMILES is read from it.
Assign labels as follows, please: satisfied for remaining activity at 20 µM below 70%; not satisfied for remaining activity at 20 µM equal to or exceeding 70%.

Would you please look over these solved cases?
>  <Compound>
CC(C)[C@@H]1NC(=O)[C@H](C)NC(=O)[C@@H](Cc2ccccc2)NC(=O)[C@H](C)NC(=O)[C@H](CCCNC(=N)N)NC(=O)[C@H](C(C)C)NC(=O)[C@@H]2CCCN2C(=O)[C@@H](Cc2ccccc2)NC(=O)[C@H](C)NC(=O)[C@H](CCCNC(=N)N)NC1=O [XQ20, Cyclo (AfAVRAfPVR)] (cyclo(AVRA[dF]PVRA[dF]))

>  <Category>
not satisfied

$$$$
>  <Compound>
CC(C)C[C@@H]1NC(=O)[C@H](CCCNC(=N)N)NC(=O)[C@H]([C@@H](C)O)NC(=O)[C@@H]2CCCN2C(=O)[C@@H](Cc2ccccc2)NC(=O)[C@H](C)NC(=O)[C@H](CCCNC(=N)N)NC(=O)[C@H]([C@@H](C)O)NC(=O)[C@@H]2CCCN2C(=O)[C@@H](Cc2ccccc2)NC1=O [XQ37, Cyclo (AfPTRLfPTR)] (cyclo(A[dF]PTRL[dF]PTR))

>  <Category>
not satisfied

$$$$

-- ask Lab log: compare recorded remaining activity at 20 µM with 70%; is it strictly lower for CC(C)C[C@@H]1NC(=O)[C@H](CC(C)C)NC(=O)[C@H](C(C)C)NC(=O)[C@@H]2CCCN2C(=O)[C@@H](Cc2ccccc2)NC(=O)[C@H](C)NC(=O)[C@H](CCCNC(=N)N)NC(=O)[C@H](C(C)C)NC(=O)[C@@H]2CCCN2C(=O)[C@@H](Cc2ccccc2)NC1=O [XQ46, Cyclo (AfPVLLfPVR)] (cyclo(A[dF]PVLL[dF]PVR)) ?
-- reply satisfied

-- ask Next: CC(C)[C@@H]1NC(=O)[C@@H]2CCCN2C(=O)[C@@H](Cc2ccccc2)NC(=O)[C@H](C)NC(=O)[C@H](CCCNC(=N)N)NC(=O)[C@H](C)NC(=O)[C@@H]2CCCN2C(=O)[C@@H](Cc2ccccc2)NC(=O)[C@H](C)NC(=O)[C@H](CCCNC(=N)N)NC1=O [XQ18, Cyclo (AfPARAfPVR)] (cyclo(ARA[dF]PVRA[dF]P))
-- reply not satisfied

-- ask Next: CC(C)C[C@@H]1NC(=O)[C@H](CCCNC(=N)N)NC(=O)[C@H](C(C)C)NC(=O)[C@@H]2CCCN2C(=O)[C@@H](C)NC(=O)[C@H](C)NC(=O)[C@H](CCCNC(=N)N)NC(=O)[C@H](C(C)C)NC(=O)[C@@H]2CCCN2C(=O)[C@@H](C)NC1=O [XQ17, Cyclo (AaPVRLaPVR)] (cyclo(A[dA]PVRL[dA]PVR))
-- reply satisfied

-- ask Next: CC(C)C[C@@H]1NC(=O)[C@H](CCCNC(=N)N)NC(=O)[C@H]([C@@H](C)O)NC(=O)[C@@H]2CCCN2C(=O)[C@@H](Cc2ccccc2)NC(=O)[C@H](C(C)C)NC(=O)[C@H](CCCNC(=N)N)NC(=O)[C@H]([C@@H](C)O)NC(=O)[C@@H]2CCCN2C(=O)[C@@H](Cc2ccccc2)NC1=O [XQ30, Cyclo (VfPTRLfPTR)] (cyclo(L[dF]PTRV[dF]PTR))
-- reply not satisfied

Data origin: paper PMC10545747
